Each record here notes measured pIC50.
target.desc: Human CCR3 (Homo sapiens)
Construct: The cloned CCR3 cDNA was constructed with pcDNA3 vector and transfected into a IC562 cell line; expressed in transfected cells
Sequence (P51677 whole entry): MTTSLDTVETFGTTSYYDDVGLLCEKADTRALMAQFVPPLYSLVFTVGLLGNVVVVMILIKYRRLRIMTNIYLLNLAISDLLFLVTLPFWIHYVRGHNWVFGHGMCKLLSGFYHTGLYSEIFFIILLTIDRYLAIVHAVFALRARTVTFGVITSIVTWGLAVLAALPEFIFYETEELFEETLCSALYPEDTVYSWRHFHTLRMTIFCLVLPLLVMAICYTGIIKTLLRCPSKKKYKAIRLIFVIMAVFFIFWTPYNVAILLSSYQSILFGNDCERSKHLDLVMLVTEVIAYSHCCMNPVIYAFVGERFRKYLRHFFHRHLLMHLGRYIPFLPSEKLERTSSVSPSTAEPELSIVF
assay.explanation: Receptor binding assay (RBA), [125I]-eotaxin
measurement.parameters: human CCR3-transformed K562 cells, 0.1 nM [125I]-eotaxin; compounds of about 40 to 90% purity; read-out: Activity grade RBA (IC50 class)
pIC50: −log10 of the molar value.
measure.name: pIC50

compound="N#Cc1ccc(Oc2cc(Cl)cc(Cl)c2)c(S(=O)(=O)N2C[C@H]3C[C@@H]2CN3)c1 [Example 13-4]" measure_name=pIC50 experimental_result="> 6.00"
compound="Cc1cc(C)cc(Oc2ccc([N+](=O)[O-])cc2S(=O)(=O)N2CCN(CCO)CC2)c1 [Example 1-88]" measure_name=pIC50 experimental_result="> 6.00"
compound="Cc1cc(C)cc(Oc2cc(C(F)(F)F)ccc2S(=O)(=O)N2CCNCC2)c1.Cl [Example 1-46]" measure_name=pIC50 experimental_result="< 5.00"
compound="Cl.O=[N+]([O-])c1ccc(Oc2ccccc2Cl)c(S(=O)(=O)N2CCNCC2)c1 [Example 1-28]" measure_name=pIC50 experimental_result="5.00 to 6.00"
compound="Cc1cc(C)cc(Oc2ccc([N+](=O)[O-])cc2S(=O)(=O)N2CC(C)NC(C)C2)c1 (stereo not shown) [Example 1-92]" measure_name=pIC50 experimental_result="> 6.00"
compound="Cc1cc(C)cc(Oc2ccc(N)cc2S(=O)(=O)N2CCN(C(=O)OC(C)(C)C)CC2)c1 [Example 5-1]" measure_name=pIC50 experimental_result="< 5.00"
compound="O=[N+]([O-])c1ccc(Oc2cccc(F)c2)c(S(=O)(=O)N2CCNCC2)c1 [Example 1-25]" measure_name=pIC50 experimental_result="> 6.00"
compound="Cc1cc(C)cc(Oc2ccc(C(F)(F)F)cc2S(=O)(=O)N2CCNCC2)c1.Cl [Example 1-43]" measure_name=pIC50 experimental_result="> 6.00"
compound="CC1CN(S(=O)(=O)c2cc([N+](=O)[O-])ccc2Oc2cc(Cl)cc(Cl)c2)CC(C)N1 (stereo not shown) [Example 1-93]" measure_name=pIC50 experimental_result="> 6.00"
compound="CCC(C)N1CCN(S(=O)(=O)c2cc([N+](=O)[O-])ccc2Oc2cc(C)cc(C)c2)CC1 (stereo not shown) [Example 4-16]" measure_name=pIC50 experimental_result="> 6.00"

Just for reference, patent US8242118B2 is where these values come from.
